- target_of_assay: T1, shFcRn (soluble human FcRn) (human, UniProt P55899 24-297; P61769 21-119)
- T1 construct: extracellular domain; Printed only as 'soluble human FcRn'; also called hFcRn (immobilized on a chip)
- assay_summary: SPR, shFcRn immobilized on chip, antibody as analyte, pH 7.4;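 also: kinetics fitted with a 1:1 Langmuir model, association 200 s and dissociation 600 s in PBST, double-referenced against buffer-only and interspot signals, values averaged over repeated runs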
measured_attribute: Kd

[
  {
    "binder": "HL161AN variant No. 16 (LC:N25Q, HC:Q82E) (antibody, human IgG1, V domains shown, Variable domains only) VL: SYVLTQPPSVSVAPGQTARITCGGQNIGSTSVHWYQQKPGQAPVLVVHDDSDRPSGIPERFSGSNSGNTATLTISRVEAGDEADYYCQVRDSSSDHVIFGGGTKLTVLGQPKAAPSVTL VH: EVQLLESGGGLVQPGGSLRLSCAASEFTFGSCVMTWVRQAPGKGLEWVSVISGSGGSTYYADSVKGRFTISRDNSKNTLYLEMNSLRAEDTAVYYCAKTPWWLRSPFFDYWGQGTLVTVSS",
    "observed_result": "0.272 nM"
  },
  {
    "binder": "HL161AN variant No. 5 (LC:N25S, HC:Q82E) (antibody, human IgG1, V domains shown, Variable domains only) VL: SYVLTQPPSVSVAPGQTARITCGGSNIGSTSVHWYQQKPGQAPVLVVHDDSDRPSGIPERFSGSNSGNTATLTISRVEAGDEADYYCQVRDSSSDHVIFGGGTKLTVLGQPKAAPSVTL VH: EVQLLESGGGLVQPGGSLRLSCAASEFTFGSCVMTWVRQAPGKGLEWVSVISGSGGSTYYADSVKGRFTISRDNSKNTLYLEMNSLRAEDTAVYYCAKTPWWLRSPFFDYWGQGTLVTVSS",
    "observed_result": "0.637 nM"
  },
  {
    "binder": "HL161AN variant No. 3 (LC:N25S, HC:Q82S) (antibody, human IgG1, V domains shown, Variable domains only) VL: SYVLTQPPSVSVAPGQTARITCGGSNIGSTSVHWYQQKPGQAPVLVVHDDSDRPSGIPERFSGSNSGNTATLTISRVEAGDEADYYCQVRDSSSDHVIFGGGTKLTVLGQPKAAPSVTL VH: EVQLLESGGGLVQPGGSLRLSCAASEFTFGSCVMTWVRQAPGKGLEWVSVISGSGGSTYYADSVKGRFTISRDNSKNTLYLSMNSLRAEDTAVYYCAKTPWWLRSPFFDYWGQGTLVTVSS",
    "observed_result": "0.199 nM"
  },
  {
    "binder": "HL161AN variant No. 14 (LC:N25Q, HC:Q82S) (antibody, human IgG1, V domains shown, Variable domains only) VL: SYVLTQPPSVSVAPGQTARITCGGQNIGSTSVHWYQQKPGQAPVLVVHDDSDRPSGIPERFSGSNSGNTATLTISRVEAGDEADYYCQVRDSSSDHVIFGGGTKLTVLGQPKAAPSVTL VH: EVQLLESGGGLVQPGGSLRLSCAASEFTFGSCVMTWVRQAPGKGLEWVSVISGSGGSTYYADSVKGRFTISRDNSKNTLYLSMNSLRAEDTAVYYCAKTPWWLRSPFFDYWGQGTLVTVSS",
    "observed_result": "0.283 nM"
  }
]
